Molecular target: Tyrosine-protein kinase receptor TYRO3 (Homo sapiens)
Conditions: at 1 µM
Description: GSK_PKIS: TYRO3 mean inhibition at 1 uM [Nanosyn]
Recorded inhibition for the following compounds
recorded-endpoint: inhibition

compound: O=C(Nc1n[nH]c2nc(-c3ccco3)c(Br)cc12)C1CC1
result: 4.49%
//
compound: COC(=O)Nc1nc2cc(Oc3ccc(NC(=O)Nc4cccc(C(=O)O)c4)cc3)ccc2[nH]1
result: 3.17%
//
compound: COc1cc(C=NNc2ncnc3c2cnn3-c2ccccc2)ccc1O
result: 33.5%
//
compound: N#Cc1c(NC(=O)c2cccc3ccccc23)sc2c1CCCC2
result: 2.06%
//
compound: CCn1c(-c2nonc2N)nc2cnc(Oc3cccc(NC(=O)c4ccc(OCCN5CCOCC5)cc4)c3)cc21
result: 2.81%
//
compound: COc1cc(C)c(NC(=O)CN(C)C)cc1Nc1nc(Nc2cccc(F)c2C(N)=O)c2cc[nH]c2n1
result: 7.81%
//
compound: O=C1NC(=O)C(c2ccc(Cl)cc2)=C1Nc1ccc(Cl)c(C(=O)O)c1
result: -3.28%
//
compound: NC(=O)c1ccc(-c2nc(-c3ccccn3)c(-c3ccc4c(c3)OCO4)[nH]2)cc1
result: 1.12%
//
compound: [O-][S+]1CCN(Cc2ccc(-c3ccc4ncnc(Nc5ccc(OCc6ccccc6)c(F)c5)c4c3)o2)CC1
result: 3.36%
//
compound: COc1cc2ncn(-c3cc(O[C@@H](C)c4ccccc4Cl)c(C(N)=O)s3)c2cc1OC
result: 6%
//
compound: Cc1nnc(-c2ccc(C)c(-c3ccc(C(=O)Nc4cccc(C#N)c4)cc3)c2)o1
result: 1.98%
//
compound: Fc1cccc(COc2ccc(Nc3ncnc4sc(-c5cccs5)cc34)cc2Cl)c1
result: 1.15%
//
compound: COc1ccc2cc(-c3c(-c4ccncc4)nc(-c4ccc([S+](C)[O-])cc4)n3C)ccc2c1 (configuration not stated)
result: 0.86%
//
compound: CC(C)=Cc1cccc2c1/C(=N/Nc1ccc(S(N)(=O)=O)cc1)C(=O)N2
result: 9.24%
//
compound: O=C1NC(=O)C(N2CCc3ccccc32)=C1c1ccc(Cl)cc1
result: 3.19%
//
compound: CCCN1CCC(Oc2cc(Nc3nc(Nc4cccc(F)c4C(N)=O)c4cc[nH]c4n3)c(OC)cc2Cl)CC1
result: 1.14%
//
compound: O=C1NC(=O)C(c2cccc(Cl)c2)=C1Nc1ccc(O)c(Cl)c1
result: 0.29%
//
compound: Nc1nc(-c2ccccn2)c(-c2ccc3ncccc3n2)s1
result: 2.67%
//
compound: CCc1cccc(NC(=O)Nc2ccc(Oc3ccc4nc(NC(=O)OC)[nH]c4c3)cc2)c1
result: 21.4%
//
compound: CN1CCC(C(=O)Nc2n[nH]c3nnc(-c4ccccc4)cc23)CC1
result: 5.28%
//
compound: Cc1cccc(-c2n[nH]cc2-c2ccc3ncccc3n2)n1
result: 1.88%
//
compound: NC(=O)c1cccc(Nc2nccc(Nc3cccc4[nH]ncc34)n2)c1
result: 54.4%
//
compound: COc1ccc(COc2ccc(Cc3cnc(N)nc3N)cc2OC)cc1
result: 0.77%
//
compound: CS(=O)(=O)CCN(CC#N)Cc1ccc(-c2ccc3ncnc(Nc4ccc(OCc5cccc(F)c5)c(Cl)c4)c3c2)o1
result: 2.22%
//
compound: CCn1c(-c2nonc2N)nc2cncc(C(=O)N3CC[C@H](N)C3)c21
result: 6.78%
//
compound: O=C1Nc2ccc(C(=O)c3ccco3)cc2C1=Cc1cc(Cl)c(O)c(Cl)c1
result: 8.57%
//
compound: NS(=O)(=O)c1ccc(N/N=C2\C(=O)Nc3ccc(C(=O)NCCc4c[nH]cn4)cc32)cc1
result: 21.7%
//
compound: COC(=O)Nc1nc2cc(Oc3cccc(NC(=O)Nc4cc(C(F)(F)F)ccc4F)c3)ccc2[nH]1
result: -0.81%
//
compound: Cc1ccc(NC(=O)c2ccnc(N3CCCC3)c2)cc1-c1ccc(C(=O)NCC2CC2)cc1
result: 1.97%
//
compound: COc1cc2c(cc1Nc1nc(N3CCc4ccccc43)c3cc[nH]c3n1)N(C(=O)CN(C)C)CC2
result: 1.54%
//
compound: COc1cccc(-n2ncc3c(N/N=C/c4cccc(F)c4)ncnc32)c1
result: 8.11%
//
compound: CCN1CCC(CC(=O)Nc2n[nH]c3nc(-c4cccs4)c(Br)cc23)CC1
result: 0.12%
//
compound: COc1ccc(-c2coc3ncnc(N)c23)cc1
result: 0.37%
//
compound: Nc1ncnc2occ(-c3ccc(NC(=O)Nc4cc(C(F)(F)F)cc(C(F)(F)F)c4)cc3)c12
result: 29.6%
//
compound: CCn1c(-c2nonc2N)nc2cncc(C(=O)N3CCNCC3)c21
result: 2.14%
//
compound: Cn1cc(C=C2C(=O)Nc3cccnc32)c2ccccc21
result: 13.2%
//
compound: COc1cc2ncn(-c3cc(OCc4ccccc4C(F)(F)F)c(C(N)=O)s3)c2cc1OC
result: 10.3%
//
compound: c1cnn2ncc(-c3ccnc(Nc4ccc5c(c4)OCCO5)n3)c2c1
result: 25%
//
compound: CCn1c(-c2nonc2N)nc2ccncc21
result: -0.39%
//
compound: Cc1ccc(C(=O)NC2CCCCC2)cc1-c1ccc(C(=O)NCC2CC2)cc1
result: -0.08%
//
compound: CNC(=O)c1cncc(/C=C/c2c(Cl)cccc2Cl)c1
result: 4.06%
//
compound: COc1ccc(-c2nn3ncccc3c2-c2ccnc(Nc3ccc(Cl)c(C(F)(F)F)c3)n2)cc1
result: 3.05%
